Test system: IL-1β, human whole blood
protocol_notes: Whole blood assay for IL-1β production
Assay type: cell-based
condition_notes: Homo sapiens, * = values obtained upon reassay; read-out: Whole human blood IC50
property_name: IC50 (nM)

O=C[C@H](CC(=O)O)NC(=O)[C@@H]1CCCN2C(=O)CC[C@H](NC(=O)c3ccc(O)c(Cl)c3)C(=O)N12
500
O=C[C@H](CC(=O)O)NC(=O)[C@@H]1CCCN2C(=O)CC[C@H](NC(=O)c3nccc4ccccc34)C(=O)N12
700

I. O=C[C@H](CC(=O)O)NC(=O)[C@@H]1CCCN2C(=O)CC[C@H](NC(=O)c3ncc[nH]3)C(=O)N12
II. O=C(O)CC(NC(=O)[C@@H]1CCCN2C(=O)CC[C@H](NC(=O)c3ccccc3)C(=O)N12)C(=O)COCc1ccccc1Cl (stereo partly shown) [Compound 227e]
III. O=C[C@H](CC(=O)O)NC(=O)[C@@H]1CCCN2C(=O)CC[C@H](NC(=O)c3cc4ccccc4s3)C(=O)N12
Kindly order the items shown according to IC50, from the highest value down. Thanks in advance for listing the labels in the requested order.
I, III, II
(I: 4000 nM, III: 1900 nM, II: 550 nM)
